# TEST: IOSE-T80 ovarian epithelial cell cytotoxicity, dose response, cytotoxicity control for PAX8 inhibitor project, plate reader, dry powder samples (AID 743045);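 also: 0% = neutral control median and -100% = positive control median; more negative values mean more cell killing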
# CONDITION LABEL: IOSE-T80 ovarian epithelial cells; series mostly up to 35 µM
Measured potencies and affinities stand elsewhere. Calls of active or inactive are those of the source. No rule for the calls is given here.

- MOL SMILES: "CN1C(=O)c2cc(NC(=O)c3cccc(Cl)c3)ccc2OC[C@@H]2O[C@H](CC(=O)NC3CCCCC3)CC[C@@H]21"
  activity change, negative = cytotoxicity: "inactive"
- MOL SMILES: "C[C@@H]1CN([C@H](C)CO)C(=O)c2cc(NS(=O)(=O)c3cccs3)ccc2O[C@@H](C)CCCCO[C@@H]1CN(C)Cc1ccc(C(F)(F)F)cc1"
  activity change, negative = cytotoxicity: "inactive"
- MOL SMILES: "Cc1ccc(S(=O)(=O)N(C)C[C@H]2OCCCC[C@H](C)Oc3ccc(NS(=O)(=O)c4ccc(Cl)cc4)cc3C(=O)N([C@@H](C)CO)C[C@@H]2C)cc1"
  activity change, negative = cytotoxicity: "inactive"

* * *

The entries below come with measured z-score values attached.
# TEST: inhibitors of hydroxyurea-induced Chk1 phosphorylation, primary screen, imaging, HeLa, phospho-Chk1 nuclear intensity (AID 1187)
# CONDITION LABEL: hydroxyurea-induced phospho-Chk1 immunofluorescence imaging, higher = more signal

- COMPOUND: "CC(C)[C@@H](C(=O)O)n1cc(-c2ccccn2)nn1"
  z-score: -0.0613
- COMPOUND: "CC(C)C[C@@H]1NC(=O)[C@H]2C[C@@H](C(=O)NCCCC[N+](C)(C)C)[C@@H](c3cccc(OCCO)c3)N2C1=O"
  z-score: 0.824
- COMPOUND: "CN(C)CCCC[C@@H]1NC(=O)[C@@H]2C[C@H](C(=O)NCCCCCNC(=O)CS)[C@H](c3cccc(OCCO)c3)N2C1=O"
  z-score: 0.302
- COMPOUND: "C=CCC(OC(C)=O)[C@@H]1[C@@H](N(Cc2ccc(-c3ccccc3)cc2)C(=O)c2ccc(-c3ccccc3)cc2)c2cc(OCCCO)ccc2N1C(=O)c1ccc(-c2ccccc2)cc1 (stereo partly specified)"
  z-score: 0.122
- COMPOUND: "O=C1O[C@H](c2ccccc2)[C@H](c2ccccc2)N2[C@H]1[C@@H](C(=O)NC[C@H](O)c1ccccc1)[C@]1(C(=O)Nc3ccc(C#CC4(O)CCCCCC4)cc31)[C@H]2c1ccc(O)cc1"
  z-score: 0.572
- COMPOUND: "C=CCNC(=O)[C@@H]1[C@H]2C(=O)O[C@H](c3ccccc3)[C@H](c3ccccc3)N2[C@H](c2ccc(O)cc2)[C@@]12C(=O)Nc1ccccc12"
  z-score: 0.399

* * *

# TEST: compound binding in COS7 lysate, probe aLAP1, primary screen, cell lysate, small-molecule microarray (AID 1124);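 also: lysate comes from COS7 cells expressing LAP1 and is applied at 0.3 µg/mL; score merges spot fluorescence near 667 nm with signal-to-noise over triplicate slides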
# CONDITION LABEL: probe aLAP1, fluorescence, higher = more signal
PROPERTY LABEL: composite z-score

- MOLECULE: "CC(C)(C)OC(=O)CC[C@@]1(C(=O)N2CCOCC2)N=C(c2ccc(OCCCO)cc2)O[C@@H]1c1ccccc1"
  VAL: 0.599
- MOLECULE: "CCN(CC)c1ccc(N2CC=CC34O[C@@H]5C=CCOC(=O)[C@@H]5[C@H]3C(=O)N(C(C)CO)[C@@H]4C2=O)cc1 (stereo partly drawn)"
  VAL: 0.0745
- MOLECULE: "C/C=C/[C@@H](CCn1cc(CCO[Si](C(C)C)(C(C)C)C(C)C)nn1)[Si](C)(C)c1ccc(OC)cc1"
  VAL: -0.0321

* * *

# System: Human papillomavirus type 1a E7 protein (residues 1-88)
# TEST: HPV1a E7 small-molecule binders, primary screen, biochemical, small-molecule microarray, residues 1-88, 635 nm (AID 1129)
# CONDITION LABEL: small-molecule microarray binding, fluorescence 635 nm; higher = more signal
# label = Criterion met if composite z-score >= 1 else Criterion not met

- COMPOUND: "C#CCN1C(C(=O)OCC)OC[C@H]1c1ccccc1 (some centres not stated)"
  CLASS LABEL: "Criterion not met"
- COMPOUND: "COC(=O)[C@@]1(CCC(=O)OC(C)(C)C)COC(c2ccc(OCCCO)cc2)=N1"
  CLASS LABEL: "Criterion not met"
- COMPOUND: "[N-]=[N+]=NCc1ccccc1C[C@@]1(C(=O)NCc2ccccc2)N=C(c2ccc(OCCCO)cc2)O[C@@H]1c1ccccc1"
  CLASS LABEL: "Criterion met"
- COMPOUND: "COCCOC(=O)N1C(=O)[C@@]2(c3cc(C#CC4(O)CCCCCC4)ccc31)[C@H](c1ccccc1OCCO)N1[C@H](c3ccccc3)[C@H](c3ccccc3)OC(=O)[C@H]1[C@@H]2C(=O)Nc1nc2ccccc2s1"
  CLASS LABEL: "Criterion met"
- COMPOUND: "COCCCNC(=O)[C@@]1(Cc2ccccc2)N=C(c2ccc(OCCCO)cc2)O[C@H]1c1ccccc1N=[N+]=[N-]"
  CLASS LABEL: "Criterion met"
- COMPOUND: "CC(=O)OC(C/C=C\\B1OC(C)(C)C(C)(C)O1)c1ccccc1 (configuration not stated)"
  CLASS LABEL: "Criterion not met"
- COMPOUND: "CCOC(=O)C[C@H]1[C@H](OC(=O)c2ccc(-c3ccccc3)cc2)[C@@H](NC(=O)C2CCCCC2)c2cc(OCCCO)ccc2N1C(=O)c1ccc2ccccc2n1"
  CLASS LABEL: "Criterion met"

* * *

# TEST: inhibitors of hydroxyurea-induced Chk1 phosphorylation, primary screen, imaging, HeLa, phospho-Chk1 antibody, percent positive cells (AID 1186)
# CONDITION LABEL: hydroxyurea-induced phospho-Chk1 immunofluorescence imaging, higher = more signal
PROPERTY LABEL: z-score

- MOL SMILES: "CC(=O)NCCCC[C@@H]1NC(=O)[C@@H]2C[C@H](C(=O)O)[C@H](c3cccc(OCCO)c3)N2C1=O"
  PROPERTY LABEL: "z-score"
  VAL: -0.0079
- MOL SMILES: "COC(=O)[C@@]1(CCC(=O)OC(C)(C)C)COC(c2ccc(OCCCO)cc2)=N1"
  PROPERTY LABEL: "z-score"
  VAL: -0.14
- MOL SMILES: "CC(C)C[C@@H]1NC(=O)[C@H]2C[C@@H](C(=O)NCCCC[N+](C)(C)C)[C@@H](c3cccc(OCCO)c3)N2C1=O"
  PROPERTY LABEL: "z-score"
  VAL: 0.656
- MOL SMILES: "C#CCOc1ccc(C[C@H]2C(=O)O[C@H](Cc3ccccc3)[C@H](/C=C/C3CC3)N2CC#C)cc1"
  PROPERTY LABEL: "z-score"
  VAL: -0.54
- MOL SMILES: "COc1ccc(/C=C/C(=O)c2cccc(OCC(=O)OC(C)(C)C)c2)cc1"
  PROPERTY LABEL: "z-score"
  VAL: -0.0499
- MOL SMILES: "CC(C)(C)OC(=O)CC[C@@]1(C(=O)N2CCOCC2)N=C(c2ccc(OCCCO)cc2)O[C@@H]1c1ccccc1"
  PROPERTY LABEL: "z-score"
  VAL: -0.31
- MOL SMILES: "CC(C)C(=C=CC[C@@H](O)c1ccc(CO)o1)CCO"
  PROPERTY LABEL: "z-score"
  VAL: -0.969
- MOL SMILES: "COCCCN1C(=O)[C@@]2(Cc3ccccc31)c1ccccc1C(=O)N(Cc1ccccc1Cl)[C@H]2c1ccc(CO)cc1"
  PROPERTY LABEL: "z-score"
  VAL: -0.83

* * *

The entries below come with measured z-score values attached.
# TEST: modulators of S6 phosphorylation in cells, primary screen, cell-based, A549, cytoblot, luminescence, serum-stimulated (AID 1158);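 also: serum-stimulated A549 lung adenocarcinoma cells; signal is phosphorylated S6 detected by cytoblot immunostaining with HRP secondary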
# CONDITION LABEL: A549 phospho-S6 cytoblot, 5 h, higher = more signal

- COMPOUND: "CO[C@H]1O[C@H](CO)[C@@H](OC(=O)Nc2ccccc2)[C@H](OC(=O)Nc2ccccc2-c2ccccc2)[C@@H]1OC(=O)Nc1ccccc1-c1ccccc1"
  z-score: 1.01
- COMPOUND: "C=C(C(=O)CC[C@@H](OC(C)=O)c1ccccc1OCCO)C(C)C"
  z-score: -0.258
- COMPOUND: "C[N+](C)(C)CCCCNC(=O)[C@@H]1C[C@@H]2C(=O)NCC(=O)N2[C@@H]1c1cccc(OCCO)c1"
  z-score: 0.855
- COMPOUND: "COc1ccc([Si](C)(C)[C@@H]2[C@@H](CCn3cc([C@H](O)c4ccccc4)nn3)O[C@]3(C(=O)N(C)c4c(Br)cc(C)cc43)[C@H]2C)cc1"
  z-score: 2.34
- COMPOUND: "CC(C)CNC(=O)[C@@H]1c2ccccc2C(=O)N(Cc2ccc(OC(F)(F)F)cc2)[C@H]1c1ccc(CO)cc1"
  z-score: 1.69
- COMPOUND: "C=CC[C@]1(C(=O)N2CCCCC2)COC(c2ccc(OCCCO)cc2)=N1"
  z-score: 0.826
- COMPOUND: "COCCOC(=O)N1C(=O)[C@@]2(c3cc(C#CCNC(N)=O)ccc31)[C@H](C(=O)NC[C@H](O)c1ccccc1)[C@H]1C(=O)O[C@H](c3ccccc3)[C@H](c3ccccc3)N1[C@@H]2c1ccc(O)cc1"
  z-score: 1.57
- COMPOUND: "CC(C)(C)OC(=O)CC[C@]1(C(=O)NCc2ccccc2)N=C(c2ccc(OCCCO)cc2)O[C@H]1c1ccccc1N=[N+]=[N-]"
  z-score: 1.55
- COMPOUND: "CC(C)(C)OC(=O)CC[C@@]1(C(=O)NCc2ccccc2)N=C(c2ccc(OCCCO)cc2)O[C@@H]1c1ccccc1CN=[N+]=[N-]"
  z-score: 2.07
- COMPOUND: "C=C(COC)C(=O)CC[C@H](OC(=O)c1cccnc1)c1cccc(OCCO)c1"
  z-score: -0.597
- COMPOUND: "COc1ccc([Si](C)(C)[C@@H]2[C@@H](CCn3cc(CCO)nn3)O[C@]3(C(=O)N(Cc4ccc(N5C(=O)c6cccc7cccc5c67)cc4)c4ccccc43)[C@H]2C)cc1"
  z-score: 2.29
- COMPOUND: "COC(=O)[C@@]1(CCC(=O)OC(C)(C)C)COC(c2ccc(OCCCO)cc2)=N1"
  z-score: 0.21
- COMPOUND: "C=CCN1C(=O)[C@@]2(O[C@@H](CCO)[C@H]([Si](C)(C)c3ccc(OC)cc3)[C@H]2C)c2cc(N3C(=O)c4cccc5cccc3c45)ccc21"
  z-score: 0.0438
- COMPOUND: "COc1c(C)cc(-c2cc3c(c(CCc4ccccc4)n2)[Si](C(C)C)(C(C)C)OC3)cc1C"
  z-score: 0.663
- COMPOUND: "C=C(C1=CCN(S(=O)(=O)c2ccc(C)cc2)C1)[C@@H](OC(C)=O)[C@@H]1CCCN1S(=O)(=O)c1ccccc1[N+](=O)[O-]"
  z-score: 0.993
- COMPOUND: "NC(=O)NCC#Cc1ccc2c(c1)[C@]1(C(=O)N2)[C@H](c2ccc(OCCO)cc2)N2[C@H](c3ccccc3)[C@H](c3ccccc3)OC(=O)[C@H]2[C@@H]1C(=O)Nc1nc2ccccc2s1"
  z-score: -0.199
- COMPOUND: "CC(CO)N1C(=O)[C@@H]2C3C(=O)OCCC/C=C\\[C@H]3OC23C=CCN(Cc2ccccc2)C(=O)[C@@H]13 (stereo partly drawn)"
  z-score: 0.467
- COMPOUND: "[N-]=[N+]=NCc1ccccc1C[C@@]1(C(=O)NCc2ccccc2)N=C(c2ccc(OCCCO)cc2)O[C@@H]1c1ccccc1"
  z-score: 0.969
- COMPOUND: "COCCOC(=O)N1C(=O)[C@@]2(c3cc(C#CCCO)ccc31)[C@H](c1ccccc1OCCO)N1[C@H](c3ccccc3)[C@H](c3ccccc3)OC(=O)[C@H]1[C@@H]2C(=O)NC[C@H](O)c1ccccc1"
  z-score: 2.31
- COMPOUND: "O=C1N(CCS(=O)(=O)c2ccccc2)Cc2ccccc2[C@@H]2OC(c3ccc(OCCCO)cc3)=N[C@]12Cc1ccccc1"
  z-score: 0.503
- COMPOUND: "C=C(/C(=C/C[C@H](OC(C)=O)c1cccc(OCCO)c1)c1cc(C(=O)OC)ccc1OC)C(C)C"
  z-score: -0.228
- COMPOUND: "COc1ccc([Si](C)(C)[C@@H]2[C@@H](CC(=O)N3CCC[C@H]3CO)O[C@]3(C(=O)N(Cc4ccc(I)cc4)c4ccccc43)[C@H]2C)cc1"
  z-score: 2.62
- COMPOUND: "COc1ccc([Si](C)(C)[C@H]2[C@H](CC(=O)N(CCO)Cc3ccccc3)O[C@@]3(C(=O)N(Cc4cccc(N5C(=O)COc6ccccc65)c4)c4ccccc43)[C@@H]2C)cc1"
  z-score: 0.721
- COMPOUND: "Cc1ccc(S[C@]2(C(=O)NCCN3CCOCC3)CC(=O)N(Cc3cc(C(F)(F)F)cc(C(F)(F)F)c3)[C@@H]2c2ccc(CO)cc2)cc1"
  z-score: 2.65
- COMPOUND: "COC(=O)c1c(CC[C@@H](CO)NC(=O)Nc2ccc(OC)cc2)oc(C(=O)Cc2ccccc2)c1C(=O)OC"
  z-score: -0.0632
- COMPOUND: "COc1ccc([Si](C)(C)[C@H]2[C@H](CC(=O)N(CCO)Cc3ccccc3)O[C@@]3(C(=O)N(Cc4ccc(N5CCC5=O)cc4)c4ccccc43)[C@@H]2C)cc1"
  z-score: 1.39
- COMPOUND: "COc1ccc(/C=C/C(=O)c2cccc(OCC(=O)OC(C)(C)C)c2)cc1"
  z-score: 0.112
- COMPOUND: "CC(=O)OC(C/C=C\\B1OC(C)(C)C(C)(C)O1)c1ccccc1 (stereo not drawn)"
  z-score: 3.07
